- target-or-test-system: human KHK-C (Homo sapiens (Human), UniProt P50053)
- Sequence (P50053 whole entry): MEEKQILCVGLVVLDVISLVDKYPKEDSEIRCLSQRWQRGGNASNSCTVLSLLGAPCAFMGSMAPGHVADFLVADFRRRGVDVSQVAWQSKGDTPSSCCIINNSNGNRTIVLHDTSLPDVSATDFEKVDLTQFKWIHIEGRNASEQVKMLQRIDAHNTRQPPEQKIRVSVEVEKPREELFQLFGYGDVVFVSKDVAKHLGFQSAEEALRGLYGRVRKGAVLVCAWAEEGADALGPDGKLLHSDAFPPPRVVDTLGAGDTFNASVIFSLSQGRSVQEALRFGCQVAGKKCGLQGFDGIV
- run-description: KHK Biochemical Assay (IC50), ADP-Glo, KHK-C
- experimental-conditions: average of at least two separate assays
Here the recorded IC50 is given for each entry.
quantity-name: IC50 (nM)

>>> result("CCN1C(=O)N[C@@]2(COc3cc(-c4nc(N5C[C@@H](O)[C@@H]5C)nc5c4CCC5(F)F)ccc32)C1=O (single isomer, unassigned)")
5.6
>>> result("C[C@H]1CCN1c1nc2c(c(-c3ccc4c(c3)S(=N)(=O)CCO4)n1)CCC2 (some centres unmarked)")
16.7
>>> result("C[C@H]1CCN1c1nc2c(c(-c3cccc(C4CC(C(=O)O)C4)c3)n1)CCC2 (some centres unmarked)")
13.1
>>> result("C[C@H]1CCN1c1nc2c(c(-c3ccc4nc(N)[nH]c(=O)c4c3)n1)CCC2")
3.9
>>> result("C[C@H]1[C@H](O)CN1c1nc(-c2ccc(C3(O)CS(=O)(=O)C3)cc2)c2c(n1)C(F)(F)CC2")
6.5
>>> result("CS(=O)(=O)c1cccc(-c2nc(N3CCC[C@@H]3C#N)nc3c2CCC3)c1")
2340
>>> result("C[C@H]1[C@H](O)CN1c1nc(-c2ccc3c(c2)COC[C@@]32COC(=O)N2)c2c(n1)C(F)(F)CC2 (single isomer, unassigned)")
1.2
>>> result("C[C@H]1[C@H](O)CN1c1nc(-c2ccc3c(c2)OC[C@@H]3n2ccnn2)c2c(n1)C(F)(F)CC2")
24.3
>>> result("C[C@H]1[C@H](O)CN1c1nc(-c2ccc3c(c2)O[C@@H](CF)CNC3=O)c2c(n1)C(F)(F)CC2 (single isomer, unassigned)")
4.4
>>> result("C[C@H]1CCN1c1nc(-c2cccc(C3(N)CS(=O)(=O)C3)c2)c2c(n1)C(F)(F)CC2")
14.2
>>> result("C[C@H]1[C@H](O)CN1c1nc(-c2cccc(S(C)(=N)=O)c2)c2c(n1)C(F)(F)CC2 (some centres unmarked)")
15.7
>>> result("C[C@H]1[C@H](O)CN1c1nc(-c2ccc3c(c2)OC[C@@]32COC(=O)N2)c2c(n1)C(F)(F)CC2 (single isomer, unassigned)")
0.2
>>> result("C[C@H]1CCN1c1nc(-c2ccc([C@@H](N)CS(C)(=O)=O)cc2)c2c(n1)C(F)(F)CC2 (single isomer, unassigned)")
2.8
>>> result("C[C@H]1CCN1c1nc(-c2cccc(N=S(C)(=O)C3CC3)c2)c2c(n1)C(F)(F)CC2 (some centres unmarked)")
32.1
